- Target Desc: HUVEC IL-4 receptor (IL-4Rα/γ-like receptor component) (human, UniProt P24394 26-825)
- Sequence (P24394 26-825): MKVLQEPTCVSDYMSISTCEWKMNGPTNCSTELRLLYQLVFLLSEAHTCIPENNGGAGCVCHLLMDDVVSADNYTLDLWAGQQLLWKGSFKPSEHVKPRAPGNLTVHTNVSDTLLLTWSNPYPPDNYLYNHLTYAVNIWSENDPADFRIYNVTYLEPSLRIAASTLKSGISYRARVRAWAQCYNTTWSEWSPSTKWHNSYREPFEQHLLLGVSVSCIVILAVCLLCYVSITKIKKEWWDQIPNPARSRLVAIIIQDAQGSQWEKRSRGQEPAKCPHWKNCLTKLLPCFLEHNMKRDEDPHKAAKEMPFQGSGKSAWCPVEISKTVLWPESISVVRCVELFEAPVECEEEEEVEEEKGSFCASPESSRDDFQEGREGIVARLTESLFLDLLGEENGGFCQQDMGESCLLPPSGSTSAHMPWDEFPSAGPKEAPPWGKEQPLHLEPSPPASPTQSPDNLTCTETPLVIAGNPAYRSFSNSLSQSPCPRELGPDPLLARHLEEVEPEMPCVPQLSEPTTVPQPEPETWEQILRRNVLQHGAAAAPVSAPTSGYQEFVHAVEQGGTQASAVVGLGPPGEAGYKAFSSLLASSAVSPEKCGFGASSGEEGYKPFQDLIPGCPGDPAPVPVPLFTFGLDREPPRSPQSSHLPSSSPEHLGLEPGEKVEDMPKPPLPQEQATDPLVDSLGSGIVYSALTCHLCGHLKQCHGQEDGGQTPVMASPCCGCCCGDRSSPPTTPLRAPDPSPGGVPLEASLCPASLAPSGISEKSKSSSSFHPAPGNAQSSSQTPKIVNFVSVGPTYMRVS
- Assay Name: cell-based or functional assay
In this section, each of the binders is paired with its reported HUVEC, IL-6 secretion, EC50, pM.

{"Binder": "IL-4 mutein Y124Q (ligand) HKCDITLQEIIKTLNSLTEQKTLCTELTVTDIFAASKNTTEKETFCRAATVLRQFYSHHEKDTRCLGATAQQFHRHKQLIRFLKRLDRNLWGLAGLNSCPVKEANQSTLENFLERLKTIMREKQSKCSS", "HUVEC, IL-6 secretion, EC50, pM, pM": 200}
{"Binder": "IL-4 mutein Y124A (ligand) HKCDITLQEIIKTLNSLTEQKTLCTELTVTDIFAASKNTTEKETFCRAATVLRQFYSHHEKDTRCLGATAQQFHRHKQLIRFLKRLDRNLWGLAGLNSCPVKEANQSTLENFLERLKTIMREKASKCSS", "HUVEC, IL-6 secretion, EC50, pM, pM": 65}
{"Binder": "IL-4 mutein R121F (ligand) HKCDITLQEIIKTLNSLTEQKTLCTELTVTDIFAASKNTTEKETFCRAATVLRQFYSHHEKDTRCLGATAQQFHRHKQLIRFLKRLDRNLWGLAGLNSCPVKEANQSTLENFLERLKTIMFEKYSKCSS", "HUVEC, IL-6 secretion, EC50, pM, pM": 20}
{"Binder": "IL-4 mutein Y124S (ligand) HKCDITLQEIIKTLNSLTEQKTLCTELTVTDIFAASKNTTEKETFCRAATVLRQFYSHHEKDTRCLGATAQQFHRHKQLIRFLKRLDRNLWGLAGLNSCPVKEANQSTLENFLERLKTIMREKSSKCSS", "HUVEC, IL-6 secretion, EC50, pM, pM": 350}
